Cited source: ChEMBL document CHEMBL4706662

biological target: Glucagon-like peptide 1 receptor (Rattus norvegicus, UniProt P32301); assay: Agonist activity at rat GLP-1R expressed in HEK293 cells assessed as stimulation of cAMP accumulation by FRET assay; type: functional, cell-based
Sequence (P32301 whole entry): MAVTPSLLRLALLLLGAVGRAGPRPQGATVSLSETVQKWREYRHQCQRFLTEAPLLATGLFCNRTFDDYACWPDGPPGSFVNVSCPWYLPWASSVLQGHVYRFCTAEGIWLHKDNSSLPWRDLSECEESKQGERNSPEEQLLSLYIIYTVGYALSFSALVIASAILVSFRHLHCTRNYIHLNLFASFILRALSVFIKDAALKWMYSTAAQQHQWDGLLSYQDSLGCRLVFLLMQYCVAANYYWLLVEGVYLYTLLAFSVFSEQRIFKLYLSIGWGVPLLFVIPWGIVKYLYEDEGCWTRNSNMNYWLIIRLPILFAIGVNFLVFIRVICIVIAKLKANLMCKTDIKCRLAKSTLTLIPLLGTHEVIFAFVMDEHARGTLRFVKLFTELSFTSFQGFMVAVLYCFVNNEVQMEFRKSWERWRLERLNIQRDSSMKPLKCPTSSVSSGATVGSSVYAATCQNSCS
Square brackets hold non-standard residues; d marks the D form.
QUANTITY KIND: EC50 (nM)
Entry rule: numbers only, all in nM.

Measured EC50 of `H-H[dS]QGTFTSDLSKYLEEEAVREFIAWLKNGGPSRHYLNLVTRQRY-NH2` : 0.48

* * *

experiment: Intrinsic clearance in Sprague-Dawley rat liver microsomes at 30 uM in presence of NADPH by HPLC analysis; assay type: ADME, Microsome
Square brackets hold non-standard residues; d marks the D form.
QUANTITY KIND: microsomal CLint at 30 µM (µL/min/mg)
Entry rule: numbers only, all in µL/min/mg.

Measured microsomal CLint at 30 µM of `H-H[dS]QGTFTSDLSKYLEEEAVREFIAWLKNGGPSRHYLNLVTRQRY-NH2` : 32.5

* * *

# EC50 per entry
molecular target: Glucagon receptor (Rattus norvegicus); assay: Agonist activity at rat glucagon receptor expressed in HEK293 cells assessed as stimulation of cAMP accumulation by FRET assay; assay type: functional, cell-based
Sequence (P30082 whole entry): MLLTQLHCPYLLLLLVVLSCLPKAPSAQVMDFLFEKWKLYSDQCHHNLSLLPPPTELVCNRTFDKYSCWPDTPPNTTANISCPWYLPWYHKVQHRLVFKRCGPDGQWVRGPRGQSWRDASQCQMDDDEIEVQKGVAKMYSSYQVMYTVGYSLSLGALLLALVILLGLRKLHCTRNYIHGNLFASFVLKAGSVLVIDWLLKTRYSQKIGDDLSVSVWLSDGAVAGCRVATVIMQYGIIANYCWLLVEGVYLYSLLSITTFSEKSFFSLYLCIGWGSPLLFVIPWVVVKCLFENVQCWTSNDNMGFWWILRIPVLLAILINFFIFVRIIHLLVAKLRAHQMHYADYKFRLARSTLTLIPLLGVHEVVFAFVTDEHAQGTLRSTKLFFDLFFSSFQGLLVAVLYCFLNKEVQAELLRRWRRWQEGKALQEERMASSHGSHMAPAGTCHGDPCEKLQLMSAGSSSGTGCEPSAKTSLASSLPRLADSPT
Square brackets hold non-standard residues; d marks the D form.

SUBSTANCE	EC50
H-H[dS]QGTFTSDLSKYLEEEAVREFIAWLKNGGPSRHYLNLVTRQRY-NH2	> 3 µM
H-HSQGTFTSDLSKQMEEEAVRLFIEWLKNRYYASLRRHYLNLVTRQRY-NH2	> 3 µM

Now look at this one.
Measured EC50 of `H-HSQGTFTSDLSKQMEEWAVRLFIEWLKNGGPSRYYASLRRHYLNLVTRQRY-NH2` : > 3 µM

* * *

assay: Half life in Sprague-Dawley rat liver microsomes at 30 uM in presence of NADPH by HPLC analysis; format: ADME, Microsome
Square brackets hold non-standard residues; d marks the D form.
QUANTITY KIND: half-life at 30 µM (h)
Entry rule: numbers only, all in h.

Measured half-life at 30 µM of `H-H[dS]QGTFTSDLSKYLEEEAVREFIAWLKNGGPSRHYLNLVTRQRY-NH2` : 2.27

* * *

target: Glucagon-like peptide 1 receptor (Homo sapiens); assay: Displacement of GLP-1-red from human GLP-1R expressed in CHO-K1 cells by fluorescent competitive binding assay; format: cell-based
Sequence (P43220 whole entry): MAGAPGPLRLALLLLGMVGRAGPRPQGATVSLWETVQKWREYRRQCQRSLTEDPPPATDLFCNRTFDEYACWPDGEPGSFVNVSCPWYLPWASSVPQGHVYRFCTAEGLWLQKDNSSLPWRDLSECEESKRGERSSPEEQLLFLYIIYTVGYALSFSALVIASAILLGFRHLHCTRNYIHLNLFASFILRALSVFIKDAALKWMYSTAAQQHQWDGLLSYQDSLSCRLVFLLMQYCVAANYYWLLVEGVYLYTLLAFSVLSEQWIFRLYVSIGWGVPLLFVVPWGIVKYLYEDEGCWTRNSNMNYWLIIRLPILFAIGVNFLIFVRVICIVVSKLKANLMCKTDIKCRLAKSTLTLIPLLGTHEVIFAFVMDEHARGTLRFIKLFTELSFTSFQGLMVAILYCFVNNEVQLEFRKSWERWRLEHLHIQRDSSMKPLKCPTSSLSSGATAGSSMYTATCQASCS
pIC50: −log10 of the molar value. Square brackets hold non-standard residues; d marks the D form.
QUANTITY KIND: pIC50

SUBSTANCE	pIC50
H-HSQGTFTSDLSKQMEEWAVRLFIEWLKNGGPSRYYASLRRHYLNLVTRQRY-NH2	< 6.00

Reported Glucagon-like peptide 1 receptor (Homo sapiens) pIC50 for item `H-HSQGTFTSDLSKQMEEEAVRLFIEWLKNRYYASLRRHYLNLVTRQRY-NH2` was < 6.00

Reported Glucagon-like peptide 1 receptor (Homo sapiens) pIC50 for item `H-H[dS]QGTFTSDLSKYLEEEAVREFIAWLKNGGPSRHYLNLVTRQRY-NH2` was 6.95
